src = the supplement of paper PMC12669032

- System: Bacteroides thetaiotaomicron
- procedure summary: growth AUC relative to DMSO control (median of replicates) (fraction); higher = more growth (less inhibition), active = hit call of the paper
- measurement context: 20 µM; 24 h
metric name: growth AUC
Lab note: write the figure by itself, no unit.

N#Cc1c[nH]cc1-c1cccc2c1OC(F)(F)O2; 0.953
CC(C)OP(=O)(OC(C)C)SCc1ccccc1; 0.964
CCSC(=O)N(CC)C1CCCCC1; 1.01
CCS(=O)(=O)Oc1ccc2c(c1)C(C)(C)CO2; 0.99
O=C(O)C(F)(F)C(F)(F)C(F)(F)C(F)(F)C(F)(F)C(F)(F)F; 1
CCN(CC)N=O; 1.01
CCOC(=O)CC(SP(=S)(OC)OC)C(=O)OCC (configuration not stated); 0.977
O=C(O)c1nc(Cl)ccc1Cl; 0.993
CCOC(=O)COc1cc(-c2nn(C)c(OC(F)F)c2Cl)c(F)cc1Cl; 1.01
CS(=O)(=O)c1ccc(C(=O)C2C(=O)CCCC2=O)c(Cl)c1; 1.01

Report the value of growth AUC obtained on Bacteroides thetaiotaomicron for OCC1C(CO)C2(Cl)C(Cl)=C(Cl)C1(Cl)C2(Cl)Cl (configuration not stated) .
0.799

State the measured growth AUC (Bacteroides thetaiotaomicron) of CCOC(=O)C(SP(=S)(OC)OC)c1ccccc1 (configuration not stated)
0.938
